Examples of variants with documented normalized RNA/DNA level with ligand (log10) follow.
B1: library; a variant is named by its letters at N, in order (parent)
chain: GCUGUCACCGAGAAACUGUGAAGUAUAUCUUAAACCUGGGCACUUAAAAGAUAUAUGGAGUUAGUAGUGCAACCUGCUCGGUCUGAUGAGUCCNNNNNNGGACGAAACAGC

# Variants of: B1
# procedure.text: normalized RNA/DNA level with ligand (relative to sTRSVctl = 100) (log10 (% of sTRSVctl)); HEK293T; ligand: cyclic di-GMP (c-di-GMP-II aptamer); ligand concentration (+) RNA-Seq: 1 mM; higher = less ribozyme self-cleavage, higher mRNA level
# experimental.parameters: reporter: mCherry (pCS4076), ligand present: yes
measured.endpoint: normalized RNA/DNA level with ligand (log10)

change | observed.result
AAUACA | 1.74
UGAGGC | 1.87
GCUCGC | 1.87
GCCUGG | 1.91
CCUACC | 1.85
AUGCAA | 1.66
GAUACA | 1.8
UUCGCG | 1.93
GCCUAA | 1.78
ACAAGU | 1.63
CACGCC | 1.86
CCGUCG | 1.82
CAAGCU | 1.83
GCCAAG | 1.67
GAGGAG | 1.82
GACACA | 1.77
GCUAAC | 1.7
GCGUUC | 1.55
ACUAGA | 1.64
GAUGGC | 1.8
GGCACU | 1.88
GUCAUU | 1.81
CAGCAA | 1.51
CGGUUA | 1.43
CCAACG | 1.85
GUGUGU | 1.77
CGCGUC | 1.88
AAUUUC | 1.87
ACCACA | 1.76
CGGUGC | 1.9
AUGUCG | 1.76
AGGUAA | 1.56
CGUUCU | 1.68
GCUUCU | 1.87
GUUCCC | 1.9
AUAGGA | 1.55
CGCACG | 1.85
AAGGCC | 1.83
UAUGUU | 1.79
ACUUCA | 1.83
CUAUCC | 1.88
GUAGGC | 1.78
GACGGA | 1.63
GUGAGU | 1.77
UGAUUA | 1.84
UACCAC | 1.82
CCUCGA | 1.84
GCAUAC | 1.6
UCUCUU | 1.86
GAUGGU | 1.8
GCUUAA | 1.7
UUAUGA | 1.81
UGCAGC | 1.87
UGGGUA | 1.78
CAUGCG | 1.9
ACAAUA | 1.55
UUCACG | 1.9
GCUCCA | 1.83
UCUCCC | 1.92
GCAUCA | 1.77
CCCCAG | 1.82
UUGGAC | 1.78
AUGAUC | 1.82
CGCCGU | 1.87
UGAACC | 1.86
UUCCCG | 1.94
UUUGCC | 1.89
UGCAUU | 1.84
GUCAAC | 1.79
UUACAC | 1.84
GAGGGA | 1.74
UAAUCU | 1.85
CGUUGC | 1.88
AGAGCA | 1.87
AAUAGC | 1.8
AUACGU | 1.79
GCAAAG | 1.62
CGGAAU | 1.44
CCGUGC | 1.76
UCGCAG | 1.87
GAAUGG | 1.75
GACUGG | 1.78
GUCGCA | 1.86
AAUUGC | 1.83
CUAGUU | 1.89
CGUUCC | 1.87
CAUCAU | 1.72
UUUGCA | 1.85
GAUGCA | 1.9
GGUACG | 1.82
CCUCCA | 1.83

Recorded values, source the supplement of paper PMC6757056.
